system: P. falciparum W2; assay: Inhibition of the growth of P. falciparum W2 clone ([3H]-hypoxanthine uptake); type: cell-based, Plasmodium falciparum; conditions: Plasmodium falciparum, W2, 66 h, read-out: W2, IC50
value-kind: IC50 (nM)
Return type: number; implicit unit nM.

Find the recorded IC50 belonging to CCN(CC)CCCC(C)Nc1ccnc2cc(Cl)ccc12 (stereo not shown) [Chloroquine, reference compound] and report it.
450
